Target: NMDA receptors
Experiment: Non-σ competition binding, NMDA receptors ([3H]TCP)
Settings: rat brain homogenates
measure: Ki

Query string: Report Ki for CC(=O)c1ccc2c(c1)oc(=O)n2CCCCN1CCN(c2ccc(F)cc2)CC1.Cl.Cl [SN-79] please.
Result string: > 10 µM

* * *

Target: 5-HT2 receptors (Rattus norvegicus (Rat))
Sequence (P14842 whole entry): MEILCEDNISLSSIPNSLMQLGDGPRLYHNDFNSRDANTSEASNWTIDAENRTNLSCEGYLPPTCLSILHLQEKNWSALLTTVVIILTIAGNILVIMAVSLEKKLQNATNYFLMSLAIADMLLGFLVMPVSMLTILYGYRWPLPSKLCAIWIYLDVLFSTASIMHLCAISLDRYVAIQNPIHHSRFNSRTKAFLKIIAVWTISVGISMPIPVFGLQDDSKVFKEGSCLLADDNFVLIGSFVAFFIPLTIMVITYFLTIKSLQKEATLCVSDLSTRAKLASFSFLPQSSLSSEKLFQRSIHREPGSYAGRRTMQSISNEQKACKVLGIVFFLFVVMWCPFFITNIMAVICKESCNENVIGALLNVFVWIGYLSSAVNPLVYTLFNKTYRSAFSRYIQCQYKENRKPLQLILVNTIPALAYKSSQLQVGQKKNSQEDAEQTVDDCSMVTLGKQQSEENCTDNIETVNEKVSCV
measure: pKi
// pKi: -log10(molar conc.)

Query string: Requested field: pKi. Item: CC(=O)c1ccc2c(c1)oc(=O)n2CCCCN1CCN(c2ccc(F)cc2)CC1.Cl.Cl
Result string: 6.49

* * *

Assay: Partition coefficient (Log P / Log D), shake-flask n-octanol and water/PBS
Type: physicochemical
Settings: read-out: experimental Log P O/W±SD
measure: logP

Query string: What does the data say about its logP? Entry: Cl.O=c1sc2cc(CCCF)ccc2n1CCN1CCCCCC1 [CM304, hydrochloride]
Result string: -0.15

* * *

Target: σ-2 receptor (Rattus norvegicus (Rat), UniProt Q5U3Y7)
Sequence (Q5U3Y7 whole entry): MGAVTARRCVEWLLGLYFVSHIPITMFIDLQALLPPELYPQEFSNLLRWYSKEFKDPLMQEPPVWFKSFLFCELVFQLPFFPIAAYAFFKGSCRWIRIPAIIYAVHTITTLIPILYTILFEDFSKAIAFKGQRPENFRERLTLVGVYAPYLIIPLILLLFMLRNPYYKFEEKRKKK
measure: Ki (nM)
Kindly answer with a numeric value in nM, unit omitted.

Query string: Enter reported Ki observed with σ-2 receptor (Rattus norvegicus (Rat), UniProt Q5U3Y7) for CC(CCCn1c(=O)sc2cc(F)ccc21)N1CCN(C2CCCCC2)CC1 (stereo not shown)
Result string: 1.76

* * *

Experiment: Metabolic stability of AZ_66 in rat liver microsomes
Format: in vitro ADME
Conditions: rat, rat liver microsomes, pH 7.4; read-out: estimated CLint from microsomes
measure: microsomal CLint at 1 μM (µL/min/mg)
Answer format: numeric, µL/min/mg implied, no suffix.

Query string: # query: microsomal CLint at 1 μM of entry CC(CCCn1c(=O)sc2cc(F)ccc21)N1CCN(C2CCCCC2)CC1 (stereo not shown)
Result string: 6

* * *

Assay: In vitro half-life in mouse liver microsomes
Type: in vitro ADME
Details: mouse, microsomes, pH 7.4
measure: half-life at 5 mM (min)
Your answer should be a plain number; it is taken to be in min.

Query string: Query (molecule): Cl.O=c1sc2cc(CCCF)ccc2n1CCN1CCCCCC1 [CM304] ; field requested: half-life at 5 mM
Result string: 4.2
